Target: T1, Human LILRB2 stably expressed on EL4 cells (EL4/LILRB2) (human, UniProt Q8N423 22-597)
T1 construct: also called EL4-LILRB2 cells; cell membrane human LILRB2
T1 sequence (Q8N423 22-597 limits assumed): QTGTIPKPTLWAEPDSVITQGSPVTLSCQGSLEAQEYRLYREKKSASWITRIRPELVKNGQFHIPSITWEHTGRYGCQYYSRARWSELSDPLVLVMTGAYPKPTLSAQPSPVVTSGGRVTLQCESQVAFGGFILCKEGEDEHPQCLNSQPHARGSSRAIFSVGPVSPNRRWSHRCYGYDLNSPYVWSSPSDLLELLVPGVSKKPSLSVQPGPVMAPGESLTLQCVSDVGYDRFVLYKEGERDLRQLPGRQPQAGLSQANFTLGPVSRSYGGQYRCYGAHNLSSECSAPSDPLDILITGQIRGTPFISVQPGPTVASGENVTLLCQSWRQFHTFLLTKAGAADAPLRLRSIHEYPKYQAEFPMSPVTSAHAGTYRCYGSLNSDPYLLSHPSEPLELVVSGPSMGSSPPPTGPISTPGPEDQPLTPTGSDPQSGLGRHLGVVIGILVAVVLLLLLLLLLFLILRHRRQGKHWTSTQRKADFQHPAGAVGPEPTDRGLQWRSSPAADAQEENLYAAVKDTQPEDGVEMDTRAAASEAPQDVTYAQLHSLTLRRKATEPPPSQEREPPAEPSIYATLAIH
Assay: FACS on EL4/LILRB2 cells
A collection of binders and their measured pEC50
Entry type: numeric. Quantity: pEC50, the -log10 of concentration in molar units.

For the binder hu043.04 (antibody, V domains shown, Humanized human IgG4 antibody with S228P in the constant region; also called hu043VH6 / hu043VL2) VH: QVQLVQSGAEVKKPGASVKVSCKASGYTFTSYWMYWVRQAPGQGLEWIGHINPSSGYTKYNQKFKDRATLTADTSTSTAYMELSSLRSEDTAVYYCARDPNWDNYWGQGTTVTVSS VL: DIQMTQSPSSLSASVGDRVTITCKASQDVSIAVAWYQQKPGKAPKLLIYSASYRYTGVPSRFSGSGSGTDFTFTISSLQPEDIATYYCQQHYSTPYTFGGGTKLEIK , what pEC50 is on record? 9.37

Let's switch to this binder now.
Param item = 043c (antibody, V domains shown, Human IgG4 chimeric antibody with S228P mutation at the Fc region; also called chimeric antibody 043c; parental antibody 043c) VH: QVQLQQSGAELAKPGASVKLSCKASGYTFTSYWMYWVKQRPGQGLEWIGHINPSSGYTKYNQKFKDKATLTADKSSSTAYMQLSSLTYEDSAVYYCARDPNWDNYWGQGTTLTVSS VL: DIVMTQSHKFMSTSVGDRVSITCKASQDVSIAVAWYQQKPGQSPKLLIYSASYRYTGVPDRFTGSGSGTDFTFTISSVQAEDLAVYYCQQHYSTPYTFGGGTKLEIK ; retrieve measured pEC50. 9.35
